protocol-notes: Acute toxicity, single oral administration
details: mouse, in vivo; single oral administration to mice
readout-type: LD50

CC(C)(C)c1cc(C=Nn2ccnc2)cc(C(C)(C)C)c1O [C]: > 1000 mg/kg
Cc1nccn1N=Cc1cc(C(C)(C)C)c(O)c(C(C)(C)C)c1 [B]: > 1000 mg/kg
CC(C)(C)c1cc(CNn2ccnc2)cc(C(C)(C)C)c1O [Compound A]: > 1000 mg/kg
